molecular target: T1, mouse DLL4 extracellular domain (mouse, UniProt Q9JI71 27-532); experiment: SPR (Biacore)
T1 construct: extracellular domain; also called muDLL4 ECD; murine DLL4
T1 sequence (Q9JI71 27-532): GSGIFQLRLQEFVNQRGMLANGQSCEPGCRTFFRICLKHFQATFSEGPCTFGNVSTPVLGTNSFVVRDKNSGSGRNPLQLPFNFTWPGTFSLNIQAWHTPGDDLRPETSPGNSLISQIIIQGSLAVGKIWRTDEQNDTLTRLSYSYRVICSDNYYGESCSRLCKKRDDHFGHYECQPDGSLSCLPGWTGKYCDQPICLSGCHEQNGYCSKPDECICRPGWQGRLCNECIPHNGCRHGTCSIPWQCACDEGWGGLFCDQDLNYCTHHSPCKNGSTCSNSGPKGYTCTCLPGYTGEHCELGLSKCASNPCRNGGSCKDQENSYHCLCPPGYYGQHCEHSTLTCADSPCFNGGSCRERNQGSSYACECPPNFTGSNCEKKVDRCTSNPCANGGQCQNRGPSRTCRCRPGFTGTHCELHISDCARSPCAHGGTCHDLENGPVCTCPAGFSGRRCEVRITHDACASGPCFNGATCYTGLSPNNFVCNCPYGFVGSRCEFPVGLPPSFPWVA
Recorded koff by entry
measurementKind: koff (s⁻¹)

binder="h1A11.E12 (antibody, V domains shown, also called h1A11.E12 VH / h1A11.E12 VL) VH: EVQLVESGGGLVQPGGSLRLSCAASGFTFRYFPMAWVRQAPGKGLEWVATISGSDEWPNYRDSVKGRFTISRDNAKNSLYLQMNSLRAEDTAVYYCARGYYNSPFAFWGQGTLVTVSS VL: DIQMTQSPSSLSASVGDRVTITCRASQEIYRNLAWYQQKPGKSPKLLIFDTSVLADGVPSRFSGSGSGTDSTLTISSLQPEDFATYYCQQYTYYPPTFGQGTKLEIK" measurementkind=koff valueunit=s⁻¹ number=5.44e-05
binder="h1A11.A6 (antibody, V domains shown, also called h1A11.A6 VH / h1A11VL.1) VH: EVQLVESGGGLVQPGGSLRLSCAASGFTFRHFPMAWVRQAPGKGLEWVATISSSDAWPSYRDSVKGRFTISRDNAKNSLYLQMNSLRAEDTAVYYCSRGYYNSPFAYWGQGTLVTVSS VL: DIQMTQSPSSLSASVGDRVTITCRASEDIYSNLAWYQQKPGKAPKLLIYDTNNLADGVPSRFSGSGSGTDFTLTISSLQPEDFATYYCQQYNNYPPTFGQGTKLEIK" measurementkind=koff valueunit=s⁻¹ number=3.12e-05
binder="h1A11.B4 (antibody, V domains shown, also called h1A11VH.1 / h1A11.B4 VL) VH: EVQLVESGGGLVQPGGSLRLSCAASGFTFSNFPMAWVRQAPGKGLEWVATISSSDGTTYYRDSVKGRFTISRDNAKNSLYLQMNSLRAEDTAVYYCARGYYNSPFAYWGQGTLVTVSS VL: DIQMTQSPSSLSASVGDRVTITCRASQDIYYNLAWYQQKPGKAPKLLIFDTNILADGVPSRFSGSGSGTDFTLTISSLQPEDFATYFCQQYDYVPPTFGQGTKLEIK" measurementkind=koff valueunit=s⁻¹ number=0.0025

Cited source: patent US20110217237A1
